Target: Ribosomal protein S6 kinase alpha-1 (Homo sapiens) (UniProt Q15418)
Sequence (Q15418 whole entry): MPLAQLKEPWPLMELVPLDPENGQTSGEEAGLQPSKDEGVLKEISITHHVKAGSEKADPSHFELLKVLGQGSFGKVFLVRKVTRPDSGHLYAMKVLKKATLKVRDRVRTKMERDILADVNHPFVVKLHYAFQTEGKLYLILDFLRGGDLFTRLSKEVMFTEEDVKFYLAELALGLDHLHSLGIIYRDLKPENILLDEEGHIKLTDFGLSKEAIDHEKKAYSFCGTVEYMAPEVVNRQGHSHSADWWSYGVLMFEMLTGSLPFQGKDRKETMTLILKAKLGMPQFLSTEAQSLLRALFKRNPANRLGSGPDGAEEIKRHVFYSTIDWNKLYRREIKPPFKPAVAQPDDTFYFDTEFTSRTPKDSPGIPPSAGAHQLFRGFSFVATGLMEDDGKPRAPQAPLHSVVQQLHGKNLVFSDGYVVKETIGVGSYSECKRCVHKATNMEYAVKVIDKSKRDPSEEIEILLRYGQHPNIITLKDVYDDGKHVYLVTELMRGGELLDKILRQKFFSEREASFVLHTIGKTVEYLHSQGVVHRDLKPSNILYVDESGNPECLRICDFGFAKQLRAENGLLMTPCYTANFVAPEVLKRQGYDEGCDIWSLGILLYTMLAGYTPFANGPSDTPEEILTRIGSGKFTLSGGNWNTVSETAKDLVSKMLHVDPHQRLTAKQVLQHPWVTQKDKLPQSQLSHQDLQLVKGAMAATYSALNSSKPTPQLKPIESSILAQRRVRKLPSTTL
Test: Inhibition of RSK1 at 30 uM by microfluidic mobility shift assay
QUANTITY: inhibition (%)

(A) Cc1cc2c(c(N)nn2C)c(N2CCCCC2)n1
(B) Cc1cc2c(c(NS(C)(=O)=O)nn2C)c(=O)[nH]1
(C) Nc1c2c(=O)[nH]c(-c3ccccc3)cc2nn1-c1ccccn1
Ask: Rank the 3 compounds shown above by inhibition, smallest number first. // respond by listing labels in the order requested
Reply: B, C, A

###

Target: Glycogen synthase kinase-3 beta (Homo sapiens)
Assay: Inhibition of GSK3B at 30 uM by microfluidic mobility shift assay
QUANTITY: inhibition (%)

Nc1n[nH]c2cc(-c3ccncc3)[nH]c(=O)c12: 95
Cc1cc2c(c(NS(C)(=O)=O)nn2C)c(=O)[nH]1: 13
COCCNc1nc(C)cc2nn(-c3ccccc3)c(N)c12: 10

(1) Cc1cc2nn(-c3ccccc3)c(N)c2c(N2CCCCC2)n1
(2) Nc1c2c(=O)[nH]c(-c3ccccc3)cc2nn1-c1ccccc1
(3) COc1cccc(-c2cc3[nH]nc(N)c3c(=O)[nH]2)c1
(4) Cc1cc2[nH]nc(N)c2c(=O)[nH]1
(5) COCCNc1nc(C)cc2c1c(N)nn2C
Ask: Falling order of inhibition, please. // respond by listing labels in the order requested
Reply: 3, 2, 4, 1, 5

(A) Cn1nc(N)c2c(=O)[nH]c(-c3ccccc3)cc21
(B) Nc1c2c(=O)[nH]c(-c3ccccc3)cc2nn1-c1ccccn1
Ask: So which one has the bigger inhibition here, A or B ? State the label of the item chosen.
Reply: A

(a) Nc1n[nH]c2cc(-c3cccnc3)[nH]c(=O)c12
(b) Cc1cc2c(c(N)nn2C)c(N2CCCCC2)n1
(c) Cn1nc(N)c2c(=O)[nH]c(-c3ccccn3)cc21
Ask: Sort the compounds on inhibition; start with the lowest figure. // respond by listing labels in the order requested
Reply: b, c, a

(A) Cc1cc2[nH]nc(N)c2cn1
(B) CN1CCN(c2ccc(-c3cc4c(c(N)nn4C)c(=O)[nH]3)cc2)CC1
Ask: Could you tell me which of these two has the smaller inhibition figure? First: A Second: B State the label of the item chosen.
Reply: A
(A: 9%, B: 45%)

(A) Cc1cc2nc(N)nc(N)c2c(=O)[nH]1
(B) COc1ccc(S(=O)(=O)Nc2nn(C)c3cc(C)[nH]c(=O)c23)c(OC)c1
Ask: So which one has the bigger inhibition here, A or B ? State the label of the item chosen.
Reply: A
(A: 36%, B: 0%)

(1) COc1ccc(-c2cc3[nH]nc(N)c3c(=O)[nH]2)cc1
(2) CC(=O)Nc1nn(C)c2cc(-c3ccccc3)[nH]c(=O)c12
Ask: Could you tell me which of these two has the smaller inhibition figure? First: 1 Second: 2 State the label of the item chosen.
Reply: 2

(a) Cc1cc2nc(-c3ccccc3)nc(N)c2c(=O)[nH]1
(b) Cc1cc2nn(-c3ccccc3)c(N)c2c(=O)[nH]1
Ask: Could you tell me which of these two has the smaller inhibition figure? First: a Second: b State the label of the item chosen.
Reply: b

(A) CC(=O)Nc1nn(C)c2cc(-c3ccc(N4CCN(C)CC4)cc3)[nH]c(=O)c12
(B) COc1cccc(-c2cc3c(c(N)nn3C)c(=O)[nH]2)c1
(C) CN1CCN(c2ccc(-c3cc4nn(-c5ccccc5)c(N)c4c(=O)[nH]3)cc2)CC1
Ask: Sort the compounds on inhibition; start with the lowest figure. // respond by listing labels in the order requested
Reply: A, C, B
(A: -3%, C: 12%, B: 61%)

Values from ChEMBL document CHEMBL1811853
